Listing of entries alongside the reported pIC50.
# system.tested: ALK2 (aa 147-end) (Homo sapiens (Human), UniProt Q04771)
# Sequence (Q04771 147-509): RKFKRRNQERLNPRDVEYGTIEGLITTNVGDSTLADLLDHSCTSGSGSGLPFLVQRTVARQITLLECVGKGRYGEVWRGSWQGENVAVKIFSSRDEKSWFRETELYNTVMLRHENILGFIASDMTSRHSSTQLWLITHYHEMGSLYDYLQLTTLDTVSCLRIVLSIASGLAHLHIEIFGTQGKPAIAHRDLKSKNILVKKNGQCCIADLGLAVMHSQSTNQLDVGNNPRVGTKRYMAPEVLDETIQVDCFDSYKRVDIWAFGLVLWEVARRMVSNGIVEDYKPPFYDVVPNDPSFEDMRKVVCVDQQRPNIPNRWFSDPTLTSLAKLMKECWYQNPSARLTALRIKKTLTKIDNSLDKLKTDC
# test.protocol: ALK2 HTRF Assay
# Type: biochemical
# experimental.context: 3 μM ATP, 0.5 nM ALK2, 2 hr, 25° C.; read-out: ALK2 IC50
pIC50: −log10 of the molar value.

structure	pIC50
Cc1cnn(-c2ccc3c(-c4cnc5cc(-c6ccc(CN7CC(C)(O)C7)cc6)c(C)nn45)ccnc3n2)n1	8.30 to 9.00
Cc1nn2c(-c3ccnc4ccccc34)cnc2cc1-c1ccc(N2CCNCC2)cc1	> 9.00
Cc1nn2c(-c3ccnc4cc(-c5ccnc(CO)c5)ccc34)cnc2cc1-c1ccc(N2CCNCC2)cc1	8.30 to 9.00
Cc1cnn(-c2ccc3c(-c4cnc5cc(-c6ccc(CN7CC[C@](C)(O)C7)cc6)c(C)nn45)ccnc3n2)n1	> 9.00
CCn1cnc(-c2ccc3c(-c4cnc5cc(-c6ccc(CN7CCC(O)CC7)cc6)c(C)nn45)ccnc3n2)c1	8.30 to 9.00
Cc1nn2c(-c3ccnc4nc(-c5ccn(C)n5)ccc34)cnc2cc1-c1ccc(C(=O)N(C)C)cc1	8.30 to 9.00
Cc1nn2c(-c3ccc(C#N)c4ncccc34)cnc2cc1-c1ccc(N2CCNCC2)cc1	7.00 to 8.30
Cc1cnn(-c2ccc3c(-c4cnc5cc(-c6cnn(C7CCOCC7)c6)c(C)nn45)ccnc3n2)n1	> 9.00
CCn1cnc(-c2ccc3c(-c4cnc5cc(-c6ccc(CN7CCO[C@@H](C)C7)cc6)c(C)nn45)ccnc3n2)c1	> 9.00
Cc1cnn(-c2ccc3c(-c4cnc5cc(-c6ccc(CN7CCC(C)(O)CC7)cc6)c(C)nn45)ccnc3n2)n1	> 9.00
Cc1nn2c(-c3ccnc4nc(-c5cnccn5)ccc34)cnc2cc1-c1ccc(CN2CCC2)cc1	8.30 to 9.00
CNC(=O)c1ccc2c(-c3cnc4cc(-c5ccc(N6CCNCC6)cc5)c(C)nn34)ccnc2c1	8.30 to 9.00
Cc1nn2c(-c3ccnc4cc(-c5ccncc5)ccc34)cnc2cc1-c1cccc(N2CCN(C)CC2)c1	7.00 to 8.30

----------
# system.tested: UniProt:Q04771
# test.protocol: ALK2 HTRF Assay
# Format: biochemical
# experimental.context: 3 μM ATP, 0.5 nM ALK2, 2 hr, 25° C.; read-out: ALK2 IC50
Parameter IC50: see the listing below.
measured.metric: IC50

molecule	system.tested	endpoint.result
Cc1nn2c(-c3ccnc4ncccc34)cnc2cc1-c1ccc(N2CCNCC2)cc1 [Example 27]	UniProt:Q04771	< 1 nM
Cc1nn2c(-c3ccnc4nc(-c5cnccn5)ccc34)cnc2cc1-c1cnn(C2CCOCC2)c1 [Example 44]	UniProt:Q04771	1 to 5 nM
Cc1cnn(-c2ccc3c(-c4cnc5cc(-c6cnn(C(C)C)c6)c(C)nn45)ccnc3n2)n1 [Example 61]	UniProt:Q04771	1 to 5 nM
CCn1cnc(-c2ccc3c(-c4cnc5cc(-c6ccc(CN7CCOCC7)cc6)c(C)nn45)ccnc3n2)c1 [Example 53]	UniProt:Q04771	1 to 5 nM
Cc1nn2c(-c3ccnc4c(C(=O)NCCO)cccc34)cnc2cc1-c1ccc(N2CCNCC2)cc1 [Example 31]	UniProt:Q04771	> 100 nM
CC(=O)N1C[C@@H]2C[C@H]1CN2c1ccc2c(-c3cnc4cc(-c5cnn([C@H]6CC[C@H](O)CC6)c5)c(C)nn34)ccnc2c1 [Example 33]	UniProt:Q04771	5 to 100 nM
Cc1nn2c(-c3ccnc4cc(-c5ccncc5)ccc34)cnc2cc1-c1ccc(N2CCN(CCO)CC2)cc1 [Example 11]	UniProt:Q04771	< 1 nM
C[C@]1(O)CC[C@H](NC(=O)c2nn3c(-c4ccnc5ccccc45)cnc3cc2-c2ccc(N3CCNCC3)cc2)CC1 [Example 3]	UniProt:Q04771	5 to 100 nM
Cc1nn2c(-c3ccnc4cc(CN5CCOCC5)ccc34)cnc2cc1-c1ccc(N2CCNCC2)cc1 [Example 24]	UniProt:Q04771	5 to 100 nM
Cc1nn2c(-c3ccnc4cc(N5CCN6C(=O)CCC6C5)ccc34)cnc2cc1-c1cnn([C@H]2CC[C@H](O)CC2)c1 (stereo partly shown) [Example 34]	UniProt:Q04771	5 to 100 nM
Cc1cn2c(-c3ccc(C(N)=O)c(F)c3)cnc2cc1-c1cnn(C2CCNCC2)c1 [Example 36]	UniProt:Q04771	< 1 nM
NC(=O)c1nn2c(-c3ccnc4ccccc34)cnc2cc1-c1ccc(N2CCNCC2)cc1 [Example 5]	UniProt:Q04771	5 to 100 nM
Cc1cnn(-c2ccc3c(-c4cnc5cc(-c6ccc(CN7CCOCC7)cc6)c(C)nn45)ccnc3n2)n1 [Example 64]	UniProt:Q04771	1 to 5 nM

meta.source: patent US11459329B2
